System: MDCK
Test: Cytotoxicity against MDCK cells assessed as inhibition of cell growth incubated for 48 hrs by MTS assay
Assay type: toxicity, cell-based, Canis lupus familiaris
Conditions: dog, mdck, 48 h
READOUT NAME: CC50 (µM)

[[record]]
compound_structure_string = "CC(=O)N1/C(=C/Nc2cccc(F)c2)C(=O)c2ccccc21"
tgt = "MDCK"
unit_abbrev = "µM"
observed = 1480

[[record]]
compound_structure_string = "CC(=O)N1/C(=C/Nc2ccc(Cc3ccccc3)cc2)C(=O)c2ccccc21"
tgt = "MDCK"
unit_abbrev = "µM"
observed = 1740

[[record]]
compound_structure_string = "CCC(=O)N1/C(=C/Nc2cccc(F)c2)C(=O)c2ccccc21"
tgt = "MDCK"
unit_abbrev = "µM"
observed = 95

[[record]]
compound_structure_string = "COc1ccc(N/C=C2\\C(=O)c3ccccc3N2C(C)=O)cc1"
tgt = "MDCK"
unit_abbrev = "µM"
observed = 1810

[[record]]
compound_structure_string = "CC(=O)N1/C(=C/Nc2cccc(OC(F)(F)F)c2)C(=O)c2ccccc21"
tgt = "MDCK"
unit_abbrev = "µM"
observed = 105


* * *

Test: Cytotoxicity against MDCK cells assessed as inhibition of cell growth incubated for 48 hrs by MTS assay
Type: toxicity, cell-based, Canis lupus familiaris
Conditions: dog, MDCK cells
READOUT NAME: CC50 at 48 h (µM)

[[record]]
compound_structure_string = "CC(=O)N1/C(=C/Nc2cccc(Oc3ccccc3)c2)C(=O)c2cccnc21"
readout_name = "CC50 at 48 h"
observed = 540


* * *

Molecular target: Neuraminidase (Influenza A virus (A/Puerto Rico/8/1934(H1N1)))
Sequence (P03468 whole entry): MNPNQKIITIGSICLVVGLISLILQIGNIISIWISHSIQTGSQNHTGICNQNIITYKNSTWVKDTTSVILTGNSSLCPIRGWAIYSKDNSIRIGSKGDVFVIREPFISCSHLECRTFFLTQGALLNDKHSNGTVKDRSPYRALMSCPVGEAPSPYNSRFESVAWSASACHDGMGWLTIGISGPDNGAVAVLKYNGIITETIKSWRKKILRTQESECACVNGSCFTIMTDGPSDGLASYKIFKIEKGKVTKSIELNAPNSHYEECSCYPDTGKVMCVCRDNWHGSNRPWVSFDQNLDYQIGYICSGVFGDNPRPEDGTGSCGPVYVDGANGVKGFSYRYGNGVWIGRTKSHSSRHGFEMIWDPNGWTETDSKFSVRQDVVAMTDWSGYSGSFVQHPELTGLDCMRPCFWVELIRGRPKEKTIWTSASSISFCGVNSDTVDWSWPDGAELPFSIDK
Assay: Inhibition of Influenza A virus A/Puerto Rico/8/34 (H1N1) neuraminidase assessed as reduction in neuraminidase activity by chemiluminescence based assay
Threshold-based label: IC50 under 500 nM gives true, IC50 not under 500 nM gives false.

[[record]]
compound_structure_string = "CC(=O)N1/C(=C/Nc2ccccn2)C(=O)c2ccccc21"
tgt = "Neuraminidase (Influenza A virus (A/Puerto Rico/8/1934(H1N1)))"
qualitative_label = "false"

[[record]]
compound_structure_string = "COc1ccc(N/C=C2/Nc3ccccc3C2=O)cc1"
tgt = "Neuraminidase (Influenza A virus (A/Puerto Rico/8/1934(H1N1)))"
qualitative_label = "false"

[[record]]
compound_structure_string = "COc1ccc(OC)c(N/C=C2\\C(=O)c3ccccc3N2C(C)=O)c1"
tgt = "Neuraminidase (Influenza A virus (A/Puerto Rico/8/1934(H1N1)))"
qualitative_label = "false"

[[record]]
compound_structure_string = "COc1ccc(N/C=C2\\C(=O)c3cc(OC)ccc3N2C(C)=O)cc1"
tgt = "Neuraminidase (Influenza A virus (A/Puerto Rico/8/1934(H1N1)))"
qualitative_label = "false"

[[record]]
compound_structure_string = "CCOC(=O)c1cccc(N/C=C2\\C(=O)c3cc(OC)ccc3N2C(C)=O)c1"
tgt = "Neuraminidase (Influenza A virus (A/Puerto Rico/8/1934(H1N1)))"
qualitative_label = "false"

[[record]]
compound_structure_string = "CC(=O)N1/C(=C/Nc2cccc(F)c2)C(=O)c2cccnc21"
tgt = "Neuraminidase (Influenza A virus (A/Puerto Rico/8/1934(H1N1)))"
qualitative_label = "false"

[[record]]
compound_structure_string = "CC(=O)N1/C(=C/Nc2ccncc2)C(=O)c2ccccc21"
tgt = "Neuraminidase (Influenza A virus (A/Puerto Rico/8/1934(H1N1)))"
qualitative_label = "false"

[[record]]
compound_structure_string = "CCC(=O)N1/C(=C/Nc2ccc(F)cc2)C(=O)c2ccccc21"
tgt = "Neuraminidase (Influenza A virus (A/Puerto Rico/8/1934(H1N1)))"
qualitative_label = "true"

[[record]]
compound_structure_string = "COc1ccccc1N/C=C1\\C(=O)c2ccccc2N1C(C)=O"
tgt = "Neuraminidase (Influenza A virus (A/Puerto Rico/8/1934(H1N1)))"
qualitative_label = "false"

[[record]]
compound_structure_string = "CC(=O)N1/C(=C/Nc2ccc(Nc3ccccc3)cc2)C(=O)c2ccccc21"
tgt = "Neuraminidase (Influenza A virus (A/Puerto Rico/8/1934(H1N1)))"
qualitative_label = "false"

[[record]]
compound_structure_string = "CC(=O)N1/C(=C/NCc2ccc(F)c(F)c2)C(=O)c2ccccc21"
tgt = "Neuraminidase (Influenza A virus (A/Puerto Rico/8/1934(H1N1)))"
qualitative_label = "false"

[[record]]
compound_structure_string = "CC(=O)N1/C(=C/Nc2ccc(C(F)(F)F)cc2)C(=O)c2ccccc21"
tgt = "Neuraminidase (Influenza A virus (A/Puerto Rico/8/1934(H1N1)))"
qualitative_label = "false"

[[record]]
compound_structure_string = "CC(=O)N1/C(=C/Nc2cccc(S(N)(=O)=O)c2)C(=O)c2ccccc21"
tgt = "Neuraminidase (Influenza A virus (A/Puerto Rico/8/1934(H1N1)))"
qualitative_label = "false"

[[record]]
compound_structure_string = "CCC(=O)N1/C(=C/Nc2ccc(F)c(F)c2)C(=O)c2ccccc21"
tgt = "Neuraminidase (Influenza A virus (A/Puerto Rico/8/1934(H1N1)))"
qualitative_label = "true"

[[record]]
compound_structure_string = "CC(=O)N1/C(=C/Nc2ccc(Cc3ccccc3)cc2)C(=O)c2ccccc21"
tgt = "Neuraminidase (Influenza A virus (A/Puerto Rico/8/1934(H1N1)))"
qualitative_label = "true"

[[record]]
compound_structure_string = "CC(=O)N1/C(=C/Nc2cccc(Cc3ccccc3)c2)C(=O)c2ccccc21"
tgt = "Neuraminidase (Influenza A virus (A/Puerto Rico/8/1934(H1N1)))"
qualitative_label = "true"

[[record]]
compound_structure_string = "CCOC(=O)c1cccc(N/C=C2\\C(=O)c3ccccc3N2C(C)=O)c1"
tgt = "Neuraminidase (Influenza A virus (A/Puerto Rico/8/1934(H1N1)))"
qualitative_label = "true"

[[record]]
compound_structure_string = "COc1ccc(N/C=C2\\C(=O)c3ccccc3N2C(C)=O)cc1"
tgt = "Neuraminidase (Influenza A virus (A/Puerto Rico/8/1934(H1N1)))"
qualitative_label = "true"

[[record]]
compound_structure_string = "COc1cccc(N/C=C2\\C(=O)c3ccccc3N2C(C)=O)c1"
tgt = "Neuraminidase (Influenza A virus (A/Puerto Rico/8/1934(H1N1)))"
qualitative_label = "true"

[[record]]
compound_structure_string = "CC(=O)N1/C(=C/Nc2ccc(F)cc2)C(=O)c2ccccc21"
tgt = "Neuraminidase (Influenza A virus (A/Puerto Rico/8/1934(H1N1)))"
qualitative_label = "true"

[[record]]
compound_structure_string = "CC(=O)N1/C(=C/Nc2cc(F)c(F)c(F)c2)C(=O)c2ccccc21"
tgt = "Neuraminidase (Influenza A virus (A/Puerto Rico/8/1934(H1N1)))"
qualitative_label = "false"

[[record]]
compound_structure_string = "CC(=O)N1/C(=C/Nc2ccccc2)C(=O)c2ccccc21"
tgt = "Neuraminidase (Influenza A virus (A/Puerto Rico/8/1934(H1N1)))"
qualitative_label = "true"

